Tested on: Staphylococcus aureus
Assay: Antimicrobial activity against methicillin-susceptible Staphylococcus aureus ST9 expressing cfr, fexA and erm(C) genes
Type: functional

{"smiles.text": "O=C(N[C@H](CO)[C@H](O)c1ccc([N+](=O)[O-])cc1)C(Cl)Cl", "inequality.sign": "≥", "MIC / µg/mL": 128}
{"smiles.text": "Cc1onc(-c2ccccc2)c1C(=O)N[C@@H]1C(=O)N2[C@@H]1SC(C)(C)[C@@H]2C(=O)O", "inequality.sign": "=", "MIC / µg/mL": 0.06}
{"smiles.text": "CN(C)[C@@H]1C(O)=C(C(N)=O)C(=O)[C@@]2(O)C(O)=C3C(=O)c4c(O)cccc4[C@@](C)(O)[C@H]3C[C@@H]12", "inequality.sign": "=", "MIC / µg/mL": 0.12}
{"smiles.text": "C=C[C@]1(C)C[C@@H](OC(=O)CSCCN(CC)CC)[C@]2(C)[C@H](C)CC[C@]3(CCC(=O)[C@H]32)[C@@H](C)[C@@H]1O", "inequality.sign": "≥", "MIC / µg/mL": 128}
{"smiles.text": "CCC[C@@H]1C[C@@H](C(=O)N[C@@H]([C@H]2O[C@H](SC)[C@H](O)[C@@H](O)[C@H]2O)[C@H](C)Cl)N(C)C1", "inequality.sign": "≥", "MIC / µg/mL": 64}
{"smiles.text": "CC1=C\\[C@@H](O)CC(=O)Cc2nc(co2)C(=O)N2CCC=C2C(=O)O[C@H](C(C)C)[C@H](C)/C=C/C(=O)NC\\C=C\\1", "inequality.sign": "=", "MIC / µg/mL": 128}
{"smiles.text": "CC(=O)NC[C@H]1CN(c2ccc(N3CCOCC3)c(F)c2)C(=O)O1", "inequality.sign": "=", "MIC / µg/mL": 8}
{"smiles.text": "CS(=O)(=O)c1ccc([C@@H](O)[C@@H](CF)NC(=O)C(Cl)Cl)cc1", "inequality.sign": "≥", "MIC / µg/mL": 128}
{"smiles.text": "CC[C@H]1OC(=O)[C@H](C)[C@@H](O[C@H]2C[C@@](C)(OC)[C@@H](O)[C@H](C)O2)[C@H](C)[C@@H](O[C@@H]2O[C@H](C)C[C@H](N(C)C)[C@H]2O)[C@](C)(O)C[C@@H](C)C(=O)[C@H](C)[C@@H](O)[C@]1(C)O", "inequality.sign": "≥", "MIC / µg/mL": 64}

This collection of values is drawn from ChEMBL document CHEMBL1629628.
